system: MS2 coat protein; experiment: apparent Kd, MS2 coat protein; higher = weaker binding; RNA-MaP array; FMN 200 µM where present; settings: ligand present: flavin mononucleotide; designed as: ON switch for flavin mononucleotide
We begin with a simple list: items and their reported apparent Kd.

See these solved cases before continuing.
item.sequence: GGAGCACACAUUAACAUGAGGAUCACCCAUGUCAAUAGACAUGAGGAUAUGGAUCCGAAAAGGAUCCAGAAGGCAUGGUGCUCC
target: MS2 coat protein
measured.property: apparent Kd
reading: 10 nM
--
item.sequence: CGCUACUACCAGAAGGACAUGAGGAUCACCCAUGUAGGAUAUGGGUUACACGUUCCUGUGAAUUGUAACGACGCUACGUAUGCG
target: MS2 coat protein
measured.property: apparent Kd
reading: 13.4 nM
--
item.sequence: GUAUCAUACCAAGGAUAUUUAGGACUUGUGUAGACAUGAGGAUCACCCAUGUGGCGUUAGUCACGGGAGAAGGUGGUAUGAUAC
target: MS2 coat protein
measured.property: apparent Kd
reading: 18.8 nM
--
item.sequence: AAGAAACAUGAGGAUCACCCAUGUCACCUCACACGAGGAUAUCUGAAUCGAUUAGAUUACGGAGAAGGCGUGAGAA
target: MS2 coat protein
measured.property: apparent Kd
reading: 18.3 nM
--
item.sequence: GUGAGAAUAGGAGGAUAUAUACAACAUGAGGAUCACCCAUGUACCCGUGUAGUAGAAGGUUUGUUUAUAUAUAAUAUUAUAUUU
target: MS2 coat protein
measured.property: apparent Kd
reading: 18.7 nM

Please report the measured apparent Kd for GGGUAAAUCGGAGGAUAUCAUGUAAAUACAUGAGGAUCACCCAUGUCGAUGGAGACAUCGGAGAUUGAGAAGGCCGAUGUACCG 9.42 nM

Please report the measured apparent Kd for GCCAUCGUAUGAGGAUAUGGCACCGAAACGGUGCCAGAAGGCAUGUCAAUCGACAUGAGGAUCACCCAUGUGUUAUCGAUGGCA 25.1 nM

###

test system: MS2 coat protein; test: apparent Kd, MS2 coat protein; higher = weaker binding; RNA-MaP array; theophylline 2 mM where present; conditions: ligand present: theophylline; designed as: ON switch for theophylline
measured.property: apparent Kd (nM)
Quick reminder: number only, in nM, skip the unit.

State the measured apparent Kd (MS2 coat protein) of ACGACGCAUAGUGAUACCAGUAGAACAUGAGGAUCACCCAUGUCUGUGACGCACCACCUCUGCCCUUGGCAGCACUAUGCGUCAG 22.9

State the measured apparent Kd (MS2 coat protein) of UGUAACAUGAGGAUCACCCAUGUGAGUGAUACCAGAUUAGUAUUAGUCCCUUGGCAGCACGUUGGGCGAGUGUAUAGUCUAUGCG 113

State the measured apparent Kd (MS2 coat protein) of AUCGUACCUGAUGAUACCAGCAUGUGAUCGUAACAUGAGGAUCACCCAUGUAAUCAGUGAUGCCCUUGGCAGCAUGAUCGGUACA 20.5

State the measured apparent Kd (MS2 coat protein) of UUACAUGAGGAUCACCCAUGUCAUAACGAUACCAGAUAGUUAAUGAUCCCUUGGCAGCGUAAUACCUAGACAUUUAAGUCAUAGG 19.6

###

test system: MS2 coat protein; assay: apparent Kd, MS2 coat protein; higher = weaker binding; RNA-MaP array; theophylline 2 mM where present; settings: designed as: OFF switch for theophylline; no ligand
We use 30 nM as the dividing line for apparent Kd: on or above the line is Satisfied, below is Not satisfied.

Check out these entries, answers already filled in.
item.sequence: ACGAACGAUAGUGAUACCAGACGUACAUGAGGAUCACCCAUGUUGUAAACAUGGUUAAUAGUCCCUUGGCAGCACGAUAAGUUCG
assigned.class: Satisfied

item.sequence: UGACAUUGCUGCGAUACCAGACAUGAGGAUCACCCAUGUACCAAGAAAACGUACAUAAAUGUCCCUUGGCAGCGCAGCAAUGUCU
assigned.class: Satisfied

item.sequence: AGACAUGAGGAUCACCCAUGUAGUACGGAUACCAGAUCCAGAUUUAUCCCUUGGCAGCUGUGGUACAGCGUUGCAACGCUCCUAG
assigned.class: Not satisfied

Confirm if apparent Kd reported for the sequence AACAUGAGGAUCACCCAUGUCAUGUUGGAUACCAGCCAAUAAUAAGGCCCUUGGCAGCUAUAGAUCGAUGAUCCAUGAGGAUCAC is 30 nM or above. Satisfied

Confirm if apparent Kd reported for the sequence ACAUGAACAUGAGGAUCACCCAUGUGGGAUACCAGCGUGUAUGAGCGCCCUUGGCAGCUCAUGACAUGAGGAUCACCCAUGUUGG is 30 nM or above. Satisfied

Confirm if apparent Kd reported for the sequence UCGUCCUCCGCAAGGAGGAGGAGUUGCGAUACCAGCACGGUAACGUGCCCUUGGCAGCGCACAUGAGGAUCACCCAUGUGGUGUU is 30 nM or above. Satisfied

###

We begin with a simple list: items and their reported apparent Kd.
test system: MS2 coat protein; assay: apparent Kd, MS2 coat protein; higher = weaker binding; RNA-MaP array; FMN 200 µM where present; conditions: ligand present: flavin mononucleotide; designed as: OFF switch for flavin mononucleotide
Quick reminder: number only, in nM, skip the unit.

See these solved cases before continuing.
item.sequence: UGAGCAUCAGGAUAUACGUGACGACCGUGAGGUCGAAGGUUACAUGAGGAUCACCCAUGUAGAAGGGAUGUUCU
apparent Kd (nM): 57.9

item.sequence: GAAUGAGAGCAGGAUAUCUUAUAAUUGUAUGAAAGAGAAGGGCUCACAUGAGGAUCACCCAUGUGGUCCUAGAU
apparent Kd (nM): 299

item.sequence: GCGAAUUAGUGAGGAUAUACAUAAUUUAAAACUGUAGAAGGCACAAUCCUCAAGACAUGAGGAUCACCCAUGUGGUAUUACGCU
apparent Kd (nM): 861

Now examine the next entry.
Please report the measured apparent Kd for CCUCUACAUGAGGAUCACCCAUGUGAGGAUAUGCGAGGCACGCCCGAUGGGCGCGCCGGUAGAAGGCAUGUGGU 49.4

###

test system: MS2 coat protein; assay: apparent Kd, MS2 coat protein; higher = weaker binding; RNA-MaP array; theophylline 2 mM where present; conditions: ligand present: theophylline; designed as: ON switch for theophylline
measured.property: apparent Kd
Kindly write the number and append the unit.

item.sequence: UGUAAAAUAACAGAUACCAGCGUGUUAUAAAACAUGAGGAUCACCCAUGUAGUGAUCAAGCGCCCUUGGCAGCUGGUAUUUUAUG
target: MS2 coat protein
apparent Kd: 0.129 µM

item.sequence: AUCGUACCUGAUGAUACCAGCAUGUGCUCGUAACAUGAGGAUCACCCAUGUGAUCAGUGAUGCCCUUGGCAGCAUGAUCGGUGCA
target: MS2 coat protein
apparent Kd: 0.0193 µM

Now examine the next entry.
Please report the measured apparent Kd for UGUUUGGUGCGCGAGUGUUGGAUGAUUGAUACCAGUGAAGAAGAGCGCCCUUGGCAGCGAAUCCUAACAUGAGGAUCACCCAUGU 0.0676 µM

###

We begin with a simple list: items and their reported apparent Kd.
test system: MS2 coat protein; assay: apparent Kd, MS2 coat protein; higher = weaker binding; RNA-MaP array; FMN 200 µM where present; conditions: ligand present: flavin mononucleotide; designed as: OFF switch for flavin mononucleotide
Quick reminder: number only, in nM, skip the unit.

See these solved cases before continuing.
item.sequence: GUUAAACAUGAGGAUCACCCAUGUAAGGAUAUGCUGCGGUCGCGCUGACGUGACUGCAGCAGAAGGUACAAAUG
unit.string: nM
apparent Kd: 66.9

item.sequence: AGGUGUAGAGGAUAUCGAGUUCUUUACAUGAGGAUCACCCAUGUCCUGGGCACCCAGGACUGAGAAGGCUACACCA
unit.string: nM
apparent Kd: 180

Please report the measured apparent Kd for AACAGUACAGGAUAUACAUGAGGAUCACCCAUGUGAGCGUUAAGUGCCGUAGCACAAAGUAGAAGGGUACUGGA 92.5

Please report the measured apparent Kd for UGAAAUCAUGUAGGAUAUGCAUGGCGAAGCUACGCAGAAGGACAUGAGGAUCACCCAUGUUAUAGCUACCCAGUUCGGUGGCAC 136

Please report the measured apparent Kd for UUAUGUCGCGUAGGAUAUCAUUAGAGUUGUAAUUUAAUUGUAAUUUCGAUAUGAGAAGGACGUACACAUGAGGAUCACCCAUGU 15.3

Please report the measured apparent Kd for GUCAGCUCGUGAGGAUAUACAACACCGCUUCGGCAGUGUAUUAAGAUCACAUGAGGAUCACCCAUGUAGAAGGCACGAGCUGAU 255

Please report the measured apparent Kd for GUCAGCUCGUGAGGAUAUAUAUUAACAUGAGGAUCACCCAUGUAAGAUCAGCUUCGGCAGUUAAUAUAGAAGGCACGAGCUGAC 188
